Reported IC50 values follow for various substances
Target: CaM kinase II (Homo sapiens, UniProt Q13557+Q13555+Q13554+Q9UQM7)
Assay: Inhibitory activity against CaMPKII (Calcium/calmodulin-dependent protein kinase type II)
Assay type: protein assay

These solved cases illustrate the format of a correct answer.
SUBSTANCE: H-RKKYKHRRK-NH2
TESTED_SYSTEM: CaM kinase II (Homo sapiens, UniProt Q13557+Q13555+Q13554+Q9UQM7)
IC50: 16.2 µM
//
SUBSTANCE: H-RKKYKDRRK-NH2
TESTED_SYSTEM: CaM kinase II (Homo sapiens, UniProt Q13557+Q13555+Q13554+Q9UQM7)
IC50: > 200 µM

Query :: Identify measured IC50 obtained with CaM kinase II (Homo sapiens, UniProt Q13557+Q13555+Q13554+Q9UQM7) for H-RKKYKMRRK-NH2 .
Result :: > 200 µM

Query :: Name the recorded IC50 of H-RKKYKFRRK-NH2 , assay system CaM kinase II (Homo sapiens, UniProt Q13557+Q13555+Q13554+Q9UQM7).
Result :: > 200 µM

Query :: Find IC50 for H-RKKYKNRRK-NH2 on CaM kinase II (Homo sapiens, UniProt Q13557+Q13555+Q13554+Q9UQM7) and write it down.
Result :: > 200 µM

---

Biological target: Myosin light chain kinase, smooth muscle (Gallus gallus, UniProt P11799)
Sequence (P11799 whole entry): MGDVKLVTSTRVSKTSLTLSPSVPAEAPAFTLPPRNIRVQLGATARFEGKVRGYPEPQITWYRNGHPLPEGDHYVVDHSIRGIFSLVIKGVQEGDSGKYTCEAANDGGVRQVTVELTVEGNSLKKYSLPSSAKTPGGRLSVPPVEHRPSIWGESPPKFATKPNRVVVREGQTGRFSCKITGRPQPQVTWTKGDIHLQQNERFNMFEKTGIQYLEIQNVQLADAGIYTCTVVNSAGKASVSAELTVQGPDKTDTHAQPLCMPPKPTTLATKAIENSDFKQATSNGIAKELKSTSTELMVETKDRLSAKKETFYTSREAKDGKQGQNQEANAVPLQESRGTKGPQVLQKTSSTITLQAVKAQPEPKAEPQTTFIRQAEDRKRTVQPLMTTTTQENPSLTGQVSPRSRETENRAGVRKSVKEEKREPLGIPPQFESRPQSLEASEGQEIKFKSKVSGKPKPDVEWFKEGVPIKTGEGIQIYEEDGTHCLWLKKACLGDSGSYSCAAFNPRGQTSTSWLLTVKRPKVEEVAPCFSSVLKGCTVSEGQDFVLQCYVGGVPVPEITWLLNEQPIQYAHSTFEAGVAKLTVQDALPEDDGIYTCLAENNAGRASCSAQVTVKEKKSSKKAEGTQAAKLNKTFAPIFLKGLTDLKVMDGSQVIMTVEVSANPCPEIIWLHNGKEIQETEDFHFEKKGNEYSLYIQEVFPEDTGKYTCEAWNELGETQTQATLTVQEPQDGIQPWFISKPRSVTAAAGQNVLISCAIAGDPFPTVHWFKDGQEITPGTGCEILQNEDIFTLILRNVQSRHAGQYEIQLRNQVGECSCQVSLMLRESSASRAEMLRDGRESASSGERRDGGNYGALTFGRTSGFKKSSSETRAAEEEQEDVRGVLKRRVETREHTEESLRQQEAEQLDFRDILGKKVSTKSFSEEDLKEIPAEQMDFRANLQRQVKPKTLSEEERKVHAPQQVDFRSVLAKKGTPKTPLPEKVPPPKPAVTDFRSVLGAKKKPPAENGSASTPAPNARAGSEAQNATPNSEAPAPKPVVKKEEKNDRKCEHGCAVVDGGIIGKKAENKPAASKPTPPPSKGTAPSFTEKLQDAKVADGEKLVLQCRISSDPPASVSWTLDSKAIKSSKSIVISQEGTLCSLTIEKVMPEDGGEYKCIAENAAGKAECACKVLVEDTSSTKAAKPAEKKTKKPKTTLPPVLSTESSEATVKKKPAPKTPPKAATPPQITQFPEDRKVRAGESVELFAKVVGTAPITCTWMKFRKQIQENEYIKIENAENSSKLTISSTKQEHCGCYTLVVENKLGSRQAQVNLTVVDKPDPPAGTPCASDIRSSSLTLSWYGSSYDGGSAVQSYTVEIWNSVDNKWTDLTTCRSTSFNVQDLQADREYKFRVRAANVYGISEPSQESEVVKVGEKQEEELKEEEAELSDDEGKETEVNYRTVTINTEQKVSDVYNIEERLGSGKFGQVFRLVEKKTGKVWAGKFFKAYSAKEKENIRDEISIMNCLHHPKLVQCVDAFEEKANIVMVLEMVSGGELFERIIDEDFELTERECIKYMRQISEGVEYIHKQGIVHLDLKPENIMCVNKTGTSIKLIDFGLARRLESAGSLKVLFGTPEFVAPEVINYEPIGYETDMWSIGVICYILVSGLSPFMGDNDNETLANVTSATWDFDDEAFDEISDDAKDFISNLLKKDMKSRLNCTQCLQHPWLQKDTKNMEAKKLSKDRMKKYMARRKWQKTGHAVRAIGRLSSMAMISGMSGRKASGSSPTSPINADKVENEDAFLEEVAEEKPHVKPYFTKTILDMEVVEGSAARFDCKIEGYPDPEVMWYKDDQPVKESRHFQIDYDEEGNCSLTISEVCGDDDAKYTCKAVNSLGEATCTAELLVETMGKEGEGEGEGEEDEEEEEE
Test: Inhibitory activity against MLCK (smooth muscle myosin light chain kinase)
PROPERTY_LABEL: pIC50
Kindly note that pIC50 refers to -log10 of the concentration in mol/L and answer with the value alone.

SUBSTANCE: H-RKKYKLRRK-NH2
PROPERTY_LABEL: pIC50
OBSERVED_RESULT: 6.49
//
SUBSTANCE: H-RKKYKDRRK-NH2
PROPERTY_LABEL: pIC50
OBSERVED_RESULT: 6.21
//
SUBSTANCE: H-RKKYKVRRK-NH2
PROPERTY_LABEL: pIC50
OBSERVED_RESULT: 6.44
//
SUBSTANCE: H-RKKYKMRRK-NH2
PROPERTY_LABEL: pIC50
OBSERVED_RESULT: 6.80

Query :: // fetch pIC50 for H-RKKYKERRK-NH2 ; system: Myosin light chain kinase, smooth muscle (Gallus gallus, UniProt P11799)
Result :: 6.06

Query :: State pIC50 on Myosin light chain kinase, smooth muscle (Gallus gallus, UniProt P11799). Entry: H-RKKYKFRRK-NH2
Result :: 6.82

---

Listed here are compounds together with their documented Ratio.
Test: Ratio of the inhibitory concentrations against CaMPKII and MLCK. IC50 (CaMPKII ) / IC50 (MLCK).
Starred links: 1 amine or outer side, 2 acyl side, 3 side chain; linkers in the order of their positions; H or OH if unused. Non-standard residues stand in square brackets, D forms with d. Residues, ends and D or L forms follow the SMILES beside them. X1 = O=C(C1CCC(N[*:1])CC1)[*:2]

Below, each entry is followed by its recorded Ratio result.
COMPOUND: NCCCC[C@H](NC(=O)[C@H](CCCN=C(N)N)NC(=O)[C@H](CCCN=C(N)N)NC(=O)C1CCC(NC(=O)[C@H](CCCCN)NC(=O)C2CCC(NC(=O)[C@H](CCCCN)NC(=O)[C@H](CCCCN)NC(=O)[C@@H](N)CCCN=C(N)N)CC2)CC1)C(N)=O (some centres undefined) (H-RKK[X1]K[X1]RRK-NH2)
Ratio: > 10
--
COMPOUND: NCCCC[C@H](NC(=O)[C@H](CCCN=C(N)N)NC(=O)[C@H](CCCN=C(N)N)NC(=O)[C@H](Cc1ccc(O)cc1)NC(=O)[C@H](CCCCN)NC(=O)C1CCC(NC(=O)[C@H](CCCCN)NC(=O)[C@H](CCCCN)NC(=O)[C@@H](N)CCCN=C(N)N)CC1)C(N)=O (some centres undefined) (H-RKK[X1]KYRRK-NH2)
Ratio: > 192
--
COMPOUND: NCCCC[C@H](NC(=O)[C@H](CCCN=C(N)N)NC(=O)[C@H](CCCN=C(N)N)NC(=O)[C@H](Cc1ccc(O)cc1)NC(=O)C1CCC(NC(=O)C2CCC(NC(=O)[C@H](CCCCN)NC(=O)[C@H](CCCCN)NC(=O)[C@@H](N)CCCN=C(N)N)CC2)CC1)C(N)=O (some centres undefined) (H-RKK[X1][X1]YRRK-NH2)
Ratio: > 67
--
COMPOUND: NCCCC[C@H](NC(=O)[C@H](CCCN=C(N)N)NC(=O)[C@H](CCCN=C(N)N)NC(=O)C1CCC(NC(=O)C2CCC(NC(=O)[C@H](Cc3ccc(O)cc3)NC(=O)[C@H](CCCCN)NC(=O)[C@H](CCCCN)NC(=O)[C@@H](N)CCCN=C(N)N)CC2)CC1)C(N)=O (some centres undefined) (H-RKKY[X1][X1]RRK-NH2)
Ratio: > 1820
--
COMPOUND: NCCCC[C@H](NC(=O)[C@H](CCCN=C(N)N)NC(=O)[C@H](CCCN=C(N)N)NC(=O)C1CCC(NC(=O)C2CCC(NC(=O)C3CCC(NC(=O)[C@H](CCCCN)NC(=O)[C@H](CCCCN)NC(=O)[C@@H](N)CCCN=C(N)N)CC3)CC2)CC1)C(N)=O (some centres undefined) (H-RKK[X1][X1][X1]RRK-NH2)
Ratio: > 10

Okay, now this compound:
Query :: Using known records, supply Ratio for NCCCC[C@H](NC(=O)[C@H](CCCN=C(N)N)NC(=O)[C@H](CCCN=C(N)N)NC(=O)[C@H](Cc1ccc(O)cc1)NC(=O)C1CCC(NC(=O)[C@H](Cc2ccc(O)cc2)NC(=O)[C@H](CCCCN)NC(=O)[C@H](CCCCN)NC(=O)[C@@H](N)CCCN=C(N)N)CC1)C(N)=O (some centres undefined) (H-RKKY[X1]YRRK-NH2)
Result :: > 5000

---

Assay: Ratio of the inhibitory concentrations against CaMPKII and MLCK. IC50 (CaMPKII ) / IC50 (MLCK).
PROPERTY_LABEL: Ratio

Field: example entries. Status: answers known.
SUBSTANCE: H-RKKYKDRRK-NH2
PROPERTY_LABEL: Ratio
OBSERVED_RESULT: > 328

SUBSTANCE: H-RKKYKARRK-NH2
PROPERTY_LABEL: Ratio
OBSERVED_RESULT: > 476

SUBSTANCE: H-RKKYKSRRK-NH2
PROPERTY_LABEL: Ratio
OBSERVED_RESULT: > 1330

SUBSTANCE: H-RKKYKYRRK-NH2
PROPERTY_LABEL: Ratio
OBSERVED_RESULT: > 4000

SUBSTANCE: H-RKKYKMRRK-NH2
PROPERTY_LABEL: Ratio
OBSERVED_RESULT: > 1250

Query :: Check the records and state Ratio for H-RKKYKVRRK-NH2
Result :: > 556

Query :: Identify measured Ratio corresponding to H-RKKYKFRRK-NH2
Result :: > 1330

---

Molecular target: CaM kinase II (Homo sapiens, UniProt Q13557+Q13555+Q13554+Q9UQM7)
Experiment: Inhibitory activity against CaMPKII (Calcium/calmodulin-dependent protein kinase type II)
Format: protein assay
PROPERTY_LABEL: IC50

Sample records with IC50:
SUBSTANCE: H-RKKYKSRRK-NH2
TESTED_SYSTEM: CaM kinase II (Homo sapiens, UniProt Q13557+Q13555+Q13554+Q9UQM7)
IC50: > 200 µM

SUBSTANCE: H-RKKYKERRK-NH2
TESTED_SYSTEM: CaM kinase II (Homo sapiens, UniProt Q13557+Q13555+Q13554+Q9UQM7)
IC50: > 200 µM

SUBSTANCE: H-RKKYKWRRK-NH2
TESTED_SYSTEM: CaM kinase II (Homo sapiens, UniProt Q13557+Q13555+Q13554+Q9UQM7)
IC50: 26.7 µM

SUBSTANCE: H-RKKYKYRRK-NH2
TESTED_SYSTEM: CaM kinase II (Homo sapiens, UniProt Q13557+Q13555+Q13554+Q9UQM7)
IC50: > 200 µM

SUBSTANCE: H-RKKYKPRRK-NH2
TESTED_SYSTEM: CaM kinase II (Homo sapiens, UniProt Q13557+Q13555+Q13554+Q9UQM7)
IC50: > 200 µM

SUBSTANCE: H-RKKYKVRRK-NH2
TESTED_SYSTEM: CaM kinase II (Homo sapiens, UniProt Q13557+Q13555+Q13554+Q9UQM7)
IC50: > 200 µM

SUBSTANCE: H-RKKYKLRRK-NH2
TESTED_SYSTEM: CaM kinase II (Homo sapiens, UniProt Q13557+Q13555+Q13554+Q9UQM7)
IC50: 132 µM

SUBSTANCE: H-RKKYKQRRK-NH2
TESTED_SYSTEM: CaM kinase II (Homo sapiens, UniProt Q13557+Q13555+Q13554+Q9UQM7)
IC50: > 200 µM

Query :: Given H-RKKYKARRK-NH2 , respond with its IC50.
Result :: > 200 µM

Query :: Please supply the value of reported IC50 for the item H-RKKYKKRRK-NH2
Result :: > 200 µM

Query :: Give a short answer stating reported IC50 for H-RKKYKGRRK-NH2 .
Result :: > 200 µM
